- Test system: BDF1 mice, B16 melanoma ip, median survival T/C
- Experimental Protocol: NCI In Vivo Anticancer Drug Screen. Data for tumor model B16 Melanoma (intraperitoneal) in B6D2F1 (BDF1) mice
- Recorded Conditions: endpoint: median survival time; dose: 3.12 mg/kg/injection; schedule: Q01DX009 (ip); vehicle: Klucel (hydroxypropylcellulose) (HPC)
Inconclusive results and toxic doses are left out. The calls were made as follows: active = survival T/C of 150% or more; inactive = T/C below 125% in these data.
Lab note: assign the record to one of true (active), false (inactive)

IN: Hey, what did the test say about Nc1nc(=S)c2[nH]c(N=Nc3ccc(S(=O)(=O)Nc4ncccn4)cc3)nc2[nH]1 ?
OUT: false

----------
- System: BDF1 mice, B16 melanoma ip, median survival T/C
- Experimental Protocol: NCI In Vivo Anticancer Drug Screen. Data for tumor model B16 Melanoma (intraperitoneal) in B6D2F1 (BDF1) mice
- Recorded Conditions: endpoint: median survival time; dose: 400.0 mg/kg/injection; schedule: Q01DX009 (ip); vehicle: Klucel (hydroxypropylcellulose) (HPC); higher = longer survival
Inconclusive results and toxic doses are left out.
Here the recorded T/C is given for each entry.

For orientation, consider the following solved cases.
IN: Look at this compound and give its reported T/C. CCOP(=O)(O)CC(=O)NC(CC(=O)O)C(=O)O (configuration not stated)
OUT: 94 % of control

IN: I am curious: what T/C value has been reported for COc1ccc(OC(=O)Nc2ccccc2OC)cc1 ?
OUT: 93 % of control

IN: Fill blank: measured T/C of the compound Cc1cccc(NC(=O)c2ccc(Cl)cc2)c1C is ____.
OUT: 89 % of control

IN: Find the recorded T/C belonging to CCOC(=O)C(C(=O)OCC)N(CC)CC and report it.
OUT: 100 % of control

IN: Record request: T/C value, item NC(=O)C(CC(=O)OCc1ccccc1)NC(=O)OCc1ccccc1 (configuration not stated)
OUT: 113 % of control

IN: Entry CC(=O)c1cccc(NC(=O)Nc2ccccc2)c1 has what T/C?
OUT: 96 % of control

Continuing:
IN: // lookup T/C for Nc1n[nH]c(C(=O)O)n1
OUT: 97 % of control

The measured values listed here are drawn from PubChem BioAssay AID192.
